Reference for the values: PubChem BioAssay AID1250

assay: inhibitors of Bluetongue virus cytopathic effect, confirmation, arbovirus, BSR cells (AID 1250); conditions: BSR cells, Bluetongue virus CPE, ATP luminescence, 72 h; at 20 µM (top of the series)
measurement-kind: CPE inhibition (%)
Answers are plain numbers, in %.

# count of solved cases: 2
Cc1nn(CC(=O)OCCOc2ccc(Br)cc2)c(C)c1[N+](=O)[O-] :: 2.41
CN1CCc2nc3sc(C#N)c(N)c3c(-c3cccs3)c2C1 :: 10.1

Go through the list and state CPE inhibition for each entry.
1. O=C(O)c1ccc(-c2nc(-c3ccc(Cl)cc3)cs2)cc1
2. CCc1ccc(S(=O)(=O)c2ccc(-n3nc(C)cc3N)cc2)cc1
3. Fc1ccccc1N1CCN(c2ncnc3[nH]ncc23)CC1
4. CCCC(=O)Nc1cccc(NC(=O)c2ccc([N+](=O)[O-])cc2Cl)c1

1. 16.2
2. 6.14
3. 7.21
4. 1.21

###

Please respond with reported CPE inhibition for every item in the list.
assay: inhibitors of Bluetongue virus cytopathic effect, confirmation, arbovirus, BSR cells (AID 1250); conditions: BSR cells, Bluetongue virus CPE, ATP luminescence, 72 h; at 20 µM (top of the series)
Answers are plain numbers, in %.

Sample answers from the record:
CN(C)Cc1c(O)c(Cl)cc2c3c(c(=O)oc12)CCCC3 :: -0.25
C=C(C)CN(CC)C(=O)CSc1nc(O)cc(=O)n1C1CCCC1 :: -1.91
CC1CC1C(=O)Nc1nc(-c2ccc(Cl)s2)cs1 (stereo not given) :: 12
Cn1cc(CN2CCN(c3ccccc3)CC2)c2ccccc21 :: 12

# input for lookup
Look up CPE inhibition for this compound: CCOC1=C/C(=C/c2c(N)n3nc(-c4ccccc4)sc3nc2=O)C=CC1=O
18

###

assay: inhibitors of Bluetongue virus cytopathic effect, confirmation, arbovirus, BSR cells (AID 1250); details: BSR cells, Bluetongue virus CPE, ATP luminescence, 72 h; at 20 µM (top of the series)
Outcome: y for CPE inhibition of at least 10%; n for anything lower.

Worked cases, answers included:
O=C(Nc1scc(-c2ccccc2)c1C(=O)O)c1ccco1 :: y
CCCc1cc(=O)[nH]c(SCc2ccc(C#N)cc2)n1 :: y
CC1=NN(c2nc(-c3ccc(Cl)cc3)cs2)C(=O)C1 :: n
O=c1c(-c2ccccc2)c[nH]n1-c1cccc([N+](=O)[O-])c1 :: y
CC(C)CSC1=NSC2=NC(=O)/C(=C\c3cccs3)C(=N)N12 :: y
COC(=O)c1cc(NC(=S)NCc2ccc(Cl)cc2)cc(C(=O)OC)c1 :: n

Kindly determine if CPE inhibition recorded for CSc1ncc(Cl)c(C(=O)C(C#N)c2nc3c(C)cc(C)cc3c(=O)[nH]2)n1 (centres undefined) is above or exactly 10%.
y

Identify whether the reported CPE inhibition of the following compound is 10% or greater: CCCn1c2c(c(O)c(C(=O)Nc3nc4ccccc4s3)c1=O)CCCC2
y

Please check the record COc1ccc(C2=CC(c3ccc(C)cc3)n3nnnc3N2)cc1 (centres undefined) and state if its CPE inhibition is at or above 10%.
n
